ASSAY_SYSTEM: T1, PRLR-expressing cells (T47D) (Homo sapiens, UniProt P16471)
T1 construct: a native PRLR expressing cell line (T47D); endogenous in cells; host or cells: T47D
T1 sequence (P16471 25-622): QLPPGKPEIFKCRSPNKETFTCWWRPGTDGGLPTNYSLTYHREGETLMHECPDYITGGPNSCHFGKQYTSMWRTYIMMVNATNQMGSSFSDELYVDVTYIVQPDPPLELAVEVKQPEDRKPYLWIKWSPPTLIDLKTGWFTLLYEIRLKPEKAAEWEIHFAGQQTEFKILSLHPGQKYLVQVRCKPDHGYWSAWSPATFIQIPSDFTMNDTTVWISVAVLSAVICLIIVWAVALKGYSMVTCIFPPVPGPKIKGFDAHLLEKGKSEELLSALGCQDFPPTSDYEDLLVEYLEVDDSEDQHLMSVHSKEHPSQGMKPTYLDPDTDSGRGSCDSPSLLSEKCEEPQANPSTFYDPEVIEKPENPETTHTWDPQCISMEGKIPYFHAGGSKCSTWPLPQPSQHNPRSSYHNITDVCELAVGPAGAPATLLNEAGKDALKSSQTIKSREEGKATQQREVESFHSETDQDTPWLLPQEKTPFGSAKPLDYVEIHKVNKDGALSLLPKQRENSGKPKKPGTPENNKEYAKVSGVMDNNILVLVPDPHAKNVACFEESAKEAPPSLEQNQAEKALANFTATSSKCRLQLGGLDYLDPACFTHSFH
TEST_NAME: Antibody binding and internalization by PRLR-expressing cells (imaging)
Format: cell-based
MEASUREMENT_CONDITIONS: [mAb] (0.67 nM), alexa488 intensity in intracellular vesicles, 1 h at 37° C.
Recorded % Internalization relative to Control I by entry
Return type: number; implicit unit %.

molecule="H1H6793P: anti-PRLR antibody, human IgG1 Fc; HCVR/LCVR SEQ ID NOs 146/154 (antibody, V domains shown, human IgG1 Fc) VH: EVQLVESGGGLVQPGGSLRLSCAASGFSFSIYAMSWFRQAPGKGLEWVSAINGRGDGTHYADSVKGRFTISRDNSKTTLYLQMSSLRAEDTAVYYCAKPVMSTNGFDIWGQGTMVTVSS VL: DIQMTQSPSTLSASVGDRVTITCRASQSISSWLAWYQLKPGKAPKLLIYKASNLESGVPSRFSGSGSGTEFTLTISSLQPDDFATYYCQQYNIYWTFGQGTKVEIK" measurement_units=% data_value=179.9

Exam item: Look up % Internalization relative to Control I: H1H6966N: human IgG1 Fc form of H2M6966N; anti-PRLR; HCVR/LCVR SEQ ID NOs 338/346 (antibody, V domains shown, human IgG1 Fc) VH: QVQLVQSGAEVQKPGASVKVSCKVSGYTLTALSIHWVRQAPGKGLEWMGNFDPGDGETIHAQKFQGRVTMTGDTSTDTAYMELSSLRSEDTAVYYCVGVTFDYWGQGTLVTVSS VL: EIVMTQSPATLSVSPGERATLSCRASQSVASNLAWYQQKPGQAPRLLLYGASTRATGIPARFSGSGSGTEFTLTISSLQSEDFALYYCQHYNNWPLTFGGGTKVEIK
Marked response: 137.2

Exam item: Next entry: H1H6953N: human IgG1 Fc form of H1M6953N; anti-PRLR; HCVR/LCVR SEQ ID NOs 274/282 (antibody, V domains shown, human IgG1 Fc) VH: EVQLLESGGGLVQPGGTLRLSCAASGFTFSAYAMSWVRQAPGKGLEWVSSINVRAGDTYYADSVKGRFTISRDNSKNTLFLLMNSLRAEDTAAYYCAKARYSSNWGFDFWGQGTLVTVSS VL: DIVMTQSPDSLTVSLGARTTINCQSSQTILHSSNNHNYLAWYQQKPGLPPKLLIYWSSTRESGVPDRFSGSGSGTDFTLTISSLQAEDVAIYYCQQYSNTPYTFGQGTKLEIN
Marked response: 153.9

Exam item: What would you report for H1H6976N: human IgG1 Fc form of H2M6976N; anti-PRLR; HCVR/LCVR SEQ ID NOs 386/394 (antibody, V domains shown, human IgG1 Fc) VH: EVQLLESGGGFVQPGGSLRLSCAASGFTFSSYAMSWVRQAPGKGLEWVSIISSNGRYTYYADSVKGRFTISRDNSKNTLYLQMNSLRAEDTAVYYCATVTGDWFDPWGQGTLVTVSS VL: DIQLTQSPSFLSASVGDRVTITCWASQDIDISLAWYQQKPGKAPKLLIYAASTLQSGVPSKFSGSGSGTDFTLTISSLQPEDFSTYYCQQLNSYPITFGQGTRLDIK ?
Marked response: 169.5

Exam item: Next: H1H6801P: anti-PRLR antibody, human IgG1 Fc; HCVR/LCVR SEQ ID NOs 210/218 (antibody, V domains shown, human IgG1 Fc) VH: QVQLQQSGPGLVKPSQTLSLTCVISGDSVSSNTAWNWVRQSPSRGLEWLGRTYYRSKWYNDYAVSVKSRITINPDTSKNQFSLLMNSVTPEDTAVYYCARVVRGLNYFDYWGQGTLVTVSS VL: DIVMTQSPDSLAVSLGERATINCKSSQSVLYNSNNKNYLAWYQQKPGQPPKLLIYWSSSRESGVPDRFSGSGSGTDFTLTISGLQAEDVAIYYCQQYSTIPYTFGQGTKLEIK
Marked response: 148.9

Exam item: What about this molecule? H1H6967N: human IgG1 Fc form of H2M6967N; anti-PRLR; HCVR/LCVR SEQ ID NOs 354/362 (antibody, V domains shown, human IgG1 Fc) VH: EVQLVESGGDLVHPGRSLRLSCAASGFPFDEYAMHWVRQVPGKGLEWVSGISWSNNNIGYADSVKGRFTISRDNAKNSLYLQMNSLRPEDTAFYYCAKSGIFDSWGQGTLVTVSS VL: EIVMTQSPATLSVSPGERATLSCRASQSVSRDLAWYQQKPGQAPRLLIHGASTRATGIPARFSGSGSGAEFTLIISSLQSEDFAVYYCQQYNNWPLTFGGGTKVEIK
Marked response: 168.6

Exam item: Try this molecule too: H1H6790P: anti-PRLR antibody, human IgG1 Fc; HCVR/LCVR SEQ ID NOs 114/122 (antibody, V domains shown, human IgG1 Fc) VH: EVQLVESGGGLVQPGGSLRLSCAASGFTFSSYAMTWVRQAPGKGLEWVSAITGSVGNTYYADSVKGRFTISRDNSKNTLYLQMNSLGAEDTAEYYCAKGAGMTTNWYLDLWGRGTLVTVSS VL: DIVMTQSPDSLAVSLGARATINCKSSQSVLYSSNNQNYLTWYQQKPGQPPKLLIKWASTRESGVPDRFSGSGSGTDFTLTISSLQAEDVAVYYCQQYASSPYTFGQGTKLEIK
Marked response: 146.9

Exam item: What do we get for H1H6795P: anti-PRLR antibody, human IgG1 Fc; HCVR/LCVR SEQ ID NOs 162/170 (antibody, V domains shown, human IgG1 Fc) VH: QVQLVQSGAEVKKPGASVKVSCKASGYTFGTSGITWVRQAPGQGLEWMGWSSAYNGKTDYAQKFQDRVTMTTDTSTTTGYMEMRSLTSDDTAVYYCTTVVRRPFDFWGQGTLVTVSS VL: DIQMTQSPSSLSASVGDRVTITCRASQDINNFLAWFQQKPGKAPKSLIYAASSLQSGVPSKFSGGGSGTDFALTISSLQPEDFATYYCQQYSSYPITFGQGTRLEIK ?
Marked response: 150.7
